assay-text: Cmax in NMRI mouse at 200 mg/kg, po after 15 mins
Type: ADME, organism-based
Set-up: dose 200 mg/kg, route oral
test-context: in vivo
reported-property: Cmax (ng/mL)
Give just the number in ng/mL; leave the unit off.

Endpoint output: Cmax of `CSc1ccc(OCc2ncc([N+](=O)[O-])n2C)cc1` . Value?
961

* * *

Tested on: Trypanosoma brucei
assay-text: Antimicrobial activity against Trypanosoma brucei NfxR1
Format: functional, organism-based
reported-property: log10 of EC50 (log10 of the value in µM)
// do not treat as linear: log10 of EC50, unit µM

Past entries and their recorded results:
NC(=O)c1cc(N2CC2)c([N+](=O)[O-])cc1[N+](=O)[O-]; 0.90
NC(=O)N/N=C/c1ccc([N+](=O)[O-])o1; 0.57

Endpoint output: log10 of EC50 of `N=C(N)c1ccc(OCCCCCOc2ccc(C(=N)N)cc2)cc1` . Value?
-2.59

// next record NCCCC(N)(C(=O)O)C(F)F (centres undefined)
1.08

// next record `O=[N+]([O-])c1cn2c(n1)OC[C@@H](OCc1ccc(OC(F)(F)F)cc1)C2`
1.48

// next record `O=C(Cn1ccnc1[N+](=O)[O-])NCc1ccccc1`
2.19

// next record Cn1c([N+](=O)[O-])cnc1COc1ccc([S+](C)[O-])cc1 (centres undefined) [FEXINIDAZOLE SULFOXIDE]
1.26

// next record `Cn1c([N+](=O)[O-])cnc1COc1ccc(S(C)(=O)=O)cc1`
0.98
